- System: mouse brain
- RUN DESCRIPTION: Comparative uptake and incorporation of halogenated amino acids in mouse brain (40 min after i.v. injection)
- Type: in vivo
- CONDITION PARAMETERS: mouse brain, 40 min after i.v. injection
Task for the reader: assign each of the following molecules its reported Incorporation.

response.value for N[C@@H](Cc1ccc(O)cc1[18F])C(=O)O [2 - ^18 FTyr, 2-[^18 F]-fluorotyrosine] (field: Incorporation) = 62 ± 3 % of cerebral activity

response.value for `N[C@@H](Cc1ccc(O)c(F)c1)C(=O)O` (field: Incorporation) = 26 ± 1 % of cerebral activity

response.value for NC(Cc1ccc([75Br])cc1)C(=O)O (stereo not shown) (field: Incorporation) = 17 ± 5 % of cerebral activity

response.value for `N[C@@H](Cc1ccccc1)C(=O)O` (field: Incorporation) = 63 ± 2 % of cerebral activity

* * *

- RUN DESCRIPTION: Comparative uptake and incorporation of halogenated amino acids in mouse brain (40 min after i.v. injection)
- Type: in vivo
- CONDITION PARAMETERS: mouse, in vivo, iv, mouse brain, 40 min after i.v. injection; read-out: Uptake
MEASURED PROPERTY: tissue uptake at 40 min (%ID/g)
Your answer should be a plain number; it is taken to be in %ID/g.

response.value for `N[C@@H](Cc1ccc(O)c(F)c1)C(=O)O` (field: tissue uptake at 40 min) = 0.8

response.value for NC(Cc1ccc([75Br])cc1)C(=O)O (stereo not drawn) (field: tissue uptake at 40 min) = 2

response.value for N[C@@H](Cc1ccc(O)cc1[18F])C(=O)O [2 - ^18 FTyr, 2-[^18 F]-fluorotyrosine] (field: tissue uptake at 40 min) = 1.3

* * *

- RUN DESCRIPTION: Comparative uptake and incorporation of halogenated amino acids in mouse brain (40 min after i.v. injection)
- Type: in vivo
- CONDITION PARAMETERS: mouse, in vivo, iv, refers to table; read-out: uptake of the injected dose per gram of tissue
- Protocol: Typically, 0.75 to 1.5 MBq of L-2-[^18 F]-fluorotyrosine in 50 to 100 μl of isotonic solution were injected into the tail vein of NMRI mice. After a defined incubation time, the animals were sacrificed and the brains were removed within 20 s and frozen in liquid nitrogen. […] The protein fraction precipitated by TCA was spun down and washed 2× with TCA solution, and the radioactivity in the combined supernatants and in the protein pellet was measured. […]
MEASURED PROPERTY: tissue uptake at 40 min

response.value for N[C@@H](Cc1ccc(O)cc1[18F])C(=O)O [2 - ^18 FTyr, 2-[^18 F]-fluorotyrosine] (field: tissue uptake at 40 min) = > 1.6 %ID/g
